# test target: Platelet-derived growth factor receptor (Homo sapiens, UniProt P09619+P16234)
# assay procedure: Inhibition of human PDGF receptor phosphorylation; 0.035-0.06
# Format: protein-complex assay
pIC50: −log10 of the molar value.
measurement kind: pIC50

>  <mol smiles>
COc1cc2cc(-c3ccc(F)cc3)cnc2cc1OC

>  <test target>
Platelet-derived growth factor receptor (Homo sapiens, UniProt P09619+P16234)

>  <measurement kind>
pIC50

>  <readout value>
7.22

$$$$

====

Below, each entry is listed alongside its reported pIC50.
# test target: Epidermal growth factor receptor (Homo sapiens, UniProt P00533)
# Sequence (P00533 whole entry): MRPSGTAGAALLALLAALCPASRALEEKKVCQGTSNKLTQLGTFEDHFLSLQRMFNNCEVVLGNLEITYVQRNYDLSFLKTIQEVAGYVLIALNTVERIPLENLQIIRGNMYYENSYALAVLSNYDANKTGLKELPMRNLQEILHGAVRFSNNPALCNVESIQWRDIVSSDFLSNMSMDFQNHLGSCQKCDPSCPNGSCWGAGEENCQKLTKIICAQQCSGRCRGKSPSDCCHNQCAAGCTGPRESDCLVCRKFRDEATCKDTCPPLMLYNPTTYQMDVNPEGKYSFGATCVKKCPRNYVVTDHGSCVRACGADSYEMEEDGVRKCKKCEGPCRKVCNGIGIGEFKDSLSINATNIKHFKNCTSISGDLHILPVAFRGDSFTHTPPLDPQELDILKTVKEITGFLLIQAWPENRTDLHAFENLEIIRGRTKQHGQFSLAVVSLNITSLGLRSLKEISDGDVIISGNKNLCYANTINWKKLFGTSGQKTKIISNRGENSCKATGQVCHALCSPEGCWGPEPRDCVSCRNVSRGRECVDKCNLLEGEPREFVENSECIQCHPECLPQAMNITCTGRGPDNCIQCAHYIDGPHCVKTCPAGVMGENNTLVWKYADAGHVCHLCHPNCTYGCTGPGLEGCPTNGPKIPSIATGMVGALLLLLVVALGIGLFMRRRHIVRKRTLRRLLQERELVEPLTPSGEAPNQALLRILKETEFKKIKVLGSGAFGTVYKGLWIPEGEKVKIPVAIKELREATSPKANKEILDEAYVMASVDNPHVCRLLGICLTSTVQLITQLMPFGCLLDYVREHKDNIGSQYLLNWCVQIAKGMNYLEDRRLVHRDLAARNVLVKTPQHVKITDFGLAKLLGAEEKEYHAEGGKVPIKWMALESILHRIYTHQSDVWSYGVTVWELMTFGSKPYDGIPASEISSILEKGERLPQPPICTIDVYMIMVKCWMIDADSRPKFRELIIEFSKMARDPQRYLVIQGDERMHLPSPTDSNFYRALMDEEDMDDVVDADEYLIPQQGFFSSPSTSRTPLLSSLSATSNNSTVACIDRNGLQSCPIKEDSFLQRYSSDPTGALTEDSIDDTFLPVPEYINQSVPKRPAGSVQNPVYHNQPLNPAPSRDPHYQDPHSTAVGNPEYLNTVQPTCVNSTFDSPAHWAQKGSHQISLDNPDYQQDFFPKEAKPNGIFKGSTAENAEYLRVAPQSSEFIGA
# assay procedure: Concentration required to inhibit phosphorylation of isolated human epidermal growth factor tyrosine kinase receptor by 50%
pIC50: −log10 of the molar value.
measurement kind: pIC50

>  <mol smiles>
COc1cc2cc(-c3ccc(F)c(F)c3)cnc2cc1OC

>  <readout value>
< 4.70

$$$$
>  <mol smiles>
COc1cc2cc(N)cnc2cc1OC

>  <readout value>
< 4.70

$$$$
>  <mol smiles>
c1ccc2ncc(-c3c[nH]c4ccccc34)cc2c1

>  <readout value>
< 4.70

$$$$
>  <mol smiles>
COc1cc2cc(CCC3CCCCC3)cnc2cc1OC

>  <readout value>
< 4.70

$$$$
>  <mol smiles>
COc1ccc(-c2cnc3cc(OC)c(OC)cc3c2)cn1

>  <readout value>
< 4.70

$$$$
>  <mol smiles>
COc1cc2cc(-c3ccc([N+](=O)[O-])cc3)cnc2cc1OC

>  <readout value>
< 4.70

$$$$
>  <mol smiles>
COc1ccc(-c2cnc3cc(OC)c(OC)cc3c2)cc1

>  <readout value>
< 4.70

$$$$
>  <mol smiles>
COc1ccc(CCc2cnc3cc(OC)c(OC)cc3c2)cc1

>  <readout value>
< 4.70

$$$$
>  <mol smiles>
COc1cc2cc(-c3cccs3)cnc2cc1OC

>  <readout value>
< 4.70

$$$$
>  <mol smiles>
COc1cc2cc(-c3ccc(F)cc3)cnc2cc1OC

>  <readout value>
< 4.70

$$$$
>  <mol smiles>
COc1cc2cc(-c3ccc(OC)c([N+](=O)[O-])c3)cnc2cc1OC

>  <readout value>
< 4.70

$$$$
>  <mol smiles>
COc1cc2cc(-c3ccc(-c4ccccc4)cc3)cnc2cc1OC

>  <readout value>
< 4.70

$$$$
>  <mol smiles>
COc1cc2cc(-c3ccc(C)cc3)cnc2cc1OC

>  <readout value>
< 4.70

$$$$
>  <mol smiles>
COc1cc2cc(-c3ccc(OCc4ccccc4)cc3)cnc2cc1OC

>  <readout value>
< 4.70

$$$$
>  <mol smiles>
COc1ccc(-c2cnc3cc(OC)c(OC)cc3c2)cc1C

>  <readout value>
< 4.70

$$$$
>  <mol smiles>
COc1ccc(-c2cnc3cc(OC)c(OC)cc3c2)c(OC)c1

>  <readout value>
< 4.70

$$$$
>  <mol smiles>
COc1cc2cc([N+](=O)[O-])cnc2cc1OC

>  <readout value>
< 4.70

$$$$
>  <mol smiles>
COc1ccc(-c2cnc3cc(OC)c(OC)cc3c2)s1

>  <readout value>
< 4.70

$$$$
>  <mol smiles>
COc1cc2cc(-c3ccc(Cl)s3)cnc2cc1OC

>  <readout value>
< 4.70

$$$$
>  <mol smiles>
COc1cc(OC)c2cc(-c3ccsc3)cnc2c1

>  <readout value>
< 4.70

$$$$
>  <mol smiles>
Cc1cc(C)c2cc(-c3ccsc3)cnc2c1

>  <readout value>
< 4.70

$$$$
>  <mol smiles>
Oc1cc2cc(-c3cccnc3)cnc2cc1O

>  <readout value>
6.30

$$$$
>  <mol smiles>
COc1ccc2ncc(-c3ccsc3)cc2c1

>  <readout value>
< 4.70

$$$$
>  <mol smiles>
COc1ccc(-c2cnc3cc(OC)c(OC)cc3c2)cc1F

>  <readout value>
< 4.70

$$$$
>  <mol smiles>
COc1cc2cc(C3CCCC3)cnc2cc1OC

>  <readout value>
< 4.70

$$$$
>  <mol smiles>
COc1cc2cc(-c3cccc(F)c3)cnc2cc1OC

>  <readout value>
< 4.70

$$$$

====

# test target: Platelet-derived growth factor receptor (Homo sapiens, UniProt P09619+P16234)
# assay procedure: Inhibition of human PDGF receptor phosphorylation; 0.2-0.8
# Type: protein-complex assay
pIC50: −log10 of the molar value.

>  <mol smiles>
COc1ccc(CCc2cnc3cc(OC)c(OC)cc3c2)cc1

>  <pIC50>
6.10

$$$$

====

# test target: Platelet-derived growth factor receptor (Homo sapiens, UniProt P09619+P16234)
# assay procedure: Inhibition of human PDGF receptor phosphorylation; 0.02-0.05
# Format: protein-complex assay

>  <mol smiles>
COc1cc2cc(C#Cc3ccccc3)cnc2cc1OC

>  <IC50 (nM)>
50

$$$$

====

# test target: Platelet-derived growth factor receptor (Homo sapiens, UniProt P09619+P16234)
# assay procedure: Inhibition of human PDGF receptor phosphorylation; 0.7-5
# Assay type: protein-complex assay
pIC50: −log10 of the molar value.
measurement kind: pIC50

>  <mol smiles>
COc1cc2cc(-c3ccc(C(=O)O)cc3)cnc2cc1OC

>  <measurement kind>
pIC50

>  <readout value>
5.30

$$$$

====

# test target: Platelet-derived growth factor receptor (Homo sapiens, UniProt P09619+P16234)
# assay procedure: Inhibition of human PDGF receptor phosphorylation; 0.1-0.25
# Assay type: protein-complex assay
pIC50: −log10 of the molar value.

>  <mol smiles>
COc1ccc(-c2cnc3cc(OC)c(OC)cc3c2)s1

>  <test target>
Platelet-derived growth factor receptor (Homo sapiens, UniProt P09619+P16234)

>  <pIC50>
6.60

$$$$

====

# test target: Platelet-derived growth factor receptor (Homo sapiens, UniProt P09619+P16234)
# assay procedure: Inhibition of human PDGF receptor phosphorylation; 0.2-0.4
# Format: protein-complex assay
pIC50: −log10 of the molar value.

>  <mol smiles>
COc1cc2cc(-c3cc(F)c(OC)c(F)c3)cnc2cc1OC

>  <pIC50>
6.40

$$$$

====

# test target: Platelet-derived growth factor receptor (Homo sapiens, UniProt P09619+P16234)
# assay procedure: Inhibition of human PDGF receptor phosphorylation; 2-8
# Format: protein-complex assay
pIC50: −log10 of the molar value.
measurement kind: pIC50

>  <mol smiles>
c1ccc2ncc(-c3c[nH]c4ccccc34)cc2c1

>  <readout value>
5.10

$$$$

====

# test target: Platelet-derived growth factor receptor (Homo sapiens, UniProt P09619+P16234)
# assay procedure: Inhibition of human PDGF receptor phosphorylation; 0.04-0.07
# Format: protein-complex assay
measurement kind: IC50 (nM)

>  <mol smiles>
COc1cc2cc(OCc3ccccc3)cnc2cc1OC

>  <test target>
Platelet-derived growth factor receptor (Homo sapiens, UniProt P09619+P16234)

>  <measurement kind>
IC50

>  <readout value>
70

$$$$

====

# test target: Platelet-derived growth factor receptor (Homo sapiens, UniProt P09619+P16234)
# assay procedure: Inhibition of human PDGF receptor phosphorylation; 0.5-2
# Type: protein-complex assay
pIC50: −log10 of the molar value.

>  <mol smiles>
COc1cc2cc(-c3ccc(C)cc3)cnc2cc1OC

>  <pIC50>
5.70

$$$$

====

# test target: Platelet-derived growth factor receptor (Homo sapiens, UniProt P09619+P16234)
# assay procedure: Inhibition of human PDGF receptor phosphorylation; 2-10
# Type: protein-complex assay

>  <mol smiles>
COc1ccc(-c2cnc3cc(OC)c(OC)cc3c2)cc1OC

>  <IC50 / µM>
10

$$$$

====

# test target: Platelet-derived growth factor receptor (Homo sapiens, UniProt P09619+P16234)
# assay procedure: Inhibition of human PDGF receptor phosphorylation; 1-7
# Assay type: protein-complex assay
pIC50: −log10 of the molar value.

>  <mol smiles>
COc1cc2cc(-c3ccc(Cl)c(Cl)c3)cnc2cc1OC

>  <test target>
Platelet-derived growth factor receptor (Homo sapiens, UniProt P09619+P16234)

>  <pIC50>
5.15

$$$$

====

# test target: Platelet-derived growth factor receptor (Homo sapiens, UniProt P09619+P16234)
# assay procedure: Inhibition of human PDGF receptor phosphorylation; 0.015-0.025
# Type: protein-complex assay

>  <mol smiles>
COc1cc2cc(-c3cccc(F)c3)cnc2cc1OC

>  <test target>
Platelet-derived growth factor receptor (Homo sapiens, UniProt P09619+P16234)

>  <IC50>
25 nM

$$$$

====

# test target: Platelet-derived growth factor receptor (Homo sapiens, UniProt P09619+P16234)
# assay procedure: Inhibition of human PDGF receptor phosphorylation; 0.001-0.015
# Type: protein-complex assay
pIC50: −log10 of the molar value.

>  <mol smiles>
COc1ccc(-c2cnc3cc(OC)c(OC)cc3c2)cc1

>  <pIC50>
7.82

$$$$

====

# test target: Platelet-derived growth factor receptor (Homo sapiens, UniProt P09619+P16234)
# assay procedure: Inhibition of human PDGF receptor phosphorylation; 0.05-0.07
# Type: protein-complex assay

>  <mol smiles>
COc1ccc2ncc(-c3ccsc3)cc2c1

>  <IC50, nM>
70

$$$$
